B1: CPEB3 Ribozyme (parent)
chain: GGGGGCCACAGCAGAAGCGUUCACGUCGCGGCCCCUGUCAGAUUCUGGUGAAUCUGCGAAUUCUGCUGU

Variants of: B1
Assay: self-cleavage, relative activity (ratio to wild type); higher = more cleavage; co-transcriptional
Where self-cleavage equals or exceeds 0.7, the correct label is satisfied; where it does not, the label is not satisfied.

## Input Evaluate G1A U67C : self-cleavage at minimum 0.7?
## Output not satisfied

## Input Evaluate G25A U49C : self-cleavage at minimum 0.7?
## Output not satisfied

## Input Evaluate A51C A52G : self-cleavage at minimum 0.7?
## Output satisfied

## Input Evaluate U36A G41C : self-cleavage at minimum 0.7?
## Output not satisfied

## Input Evaluate A13C G31A : self-cleavage at minimum 0.7?
## Output not satisfied

## Input Evaluate C18U C63U : self-cleavage at minimum 0.7?
## Output not satisfied

## Input Evaluate G30C U53C : self-cleavage at minimum 0.7?
## Output not satisfied

## Input Evaluate G30A G41A : self-cleavage at minimum 0.7?
## Output not satisfied

## Input Evaluate G37A U46C : self-cleavage at minimum 0.7?
## Output not satisfied

## Input Evaluate C6U C39U : self-cleavage at minimum 0.7?
## Output satisfied

## Input Evaluate G3A U26A : self-cleavage at minimum 0.7?
## Output not satisfied

## Input Evaluate U44C A60G : self-cleavage at minimum 0.7?
## Output not satisfied

## Input Evaluate C12A C27U : self-cleavage at minimum 0.7?
## Output not satisfied

## Input Evaluate G5U C29A : self-cleavage at minimum 0.7?
## Output not satisfied

## Input Evaluate U49C A59C : self-cleavage at minimum 0.7?
## Output satisfied

## Input Evaluate G2U G41A : self-cleavage at minimum 0.7?
## Output not satisfied

## Input Evaluate G56C G68U : self-cleavage at minimum 0.7?
## Output satisfied

## Input Evaluate C7U G37U : self-cleavage at minimum 0.7?
## Output not satisfied

## Input Evaluate A51G : self-cleavage at minimum 0.7?
## Output satisfied

## Input Evaluate U53A U62A : self-cleavage at minimum 0.7?
## Output satisfied

## Input Evaluate C22A G37C : self-cleavage at minimum 0.7?
## Output not satisfied

## Input Evaluate C7U G65U : self-cleavage at minimum 0.7?
## Output not satisfied
